Quick reference for IC50 among some compounds
target: IRAK4 (Homo sapiens (Human), UniProt Q9NWZ3); experiment: IRAK4 2-hour 1 mM ATP Biochemical Assay (MesoScale Detection format); settings: 100 pM IRAK4, read-out: IRAK4 IC50
Sequence (Q9NWZ3 whole entry): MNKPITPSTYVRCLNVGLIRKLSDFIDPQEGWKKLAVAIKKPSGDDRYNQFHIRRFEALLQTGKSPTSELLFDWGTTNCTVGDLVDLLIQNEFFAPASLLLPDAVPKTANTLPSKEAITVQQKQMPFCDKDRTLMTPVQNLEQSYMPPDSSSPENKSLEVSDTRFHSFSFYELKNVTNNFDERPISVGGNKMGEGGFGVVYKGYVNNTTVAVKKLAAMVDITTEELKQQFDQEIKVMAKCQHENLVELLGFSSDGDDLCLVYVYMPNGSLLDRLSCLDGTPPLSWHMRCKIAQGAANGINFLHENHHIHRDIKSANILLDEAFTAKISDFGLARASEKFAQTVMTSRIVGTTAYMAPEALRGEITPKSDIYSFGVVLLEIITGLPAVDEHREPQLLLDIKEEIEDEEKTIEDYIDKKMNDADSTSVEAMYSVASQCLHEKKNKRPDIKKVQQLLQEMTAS
Property name: IC50 (pM)

# Compound, Unit abbreviation, Quantitative readout
measured = [
    ("CC(C)Oc1cc2nn([C@]34CC[C@](C)(C3)OC4)cc2cc1C(=O)Nc1cccn(C2CC2)c1=O", "pM", 500),
    ("CC(C)Oc1nc2nn(C34COC(C)(C3)C4)cc2cc1C(=O)Nc1cccn(C2CC2)c1=O", "pM", 300),
    ("CC(C)Oc1nc2nn(C34COC(C)(C3)C4)cc2cc1C(=O)Nc1cccn([C@@H]2CC2(C)C)c1=O", "pM", 27000),
    ("COCC12CC(n3cc4cc(C(=O)Nc5cccn([C@H]6C[C@@H]6F)c5=O)c(OC(C)C)cc4n3)(CO1)C2 (single isomer, unassigned)", "pM", 800),
    ("CC(C)Oc1cc2nn([C@@]34CC[C@@](C)(C3)OC4)cc2cc1C(=O)Nc1cccn([C@H]2C[C@@H]2F)c1=O (single isomer, unassigned)", "pM", 500),
]

----------
target: MDR1 (Homo sapiens (Human)); test: MDR1-MDCK assay (apparent permeability, efflux ratio); type: in vitro ADME; conditions: human, MDCK-MDR1, 1 μM, read-out: MDR1-MDCK_Efflux Ratio
Sequence (P08183 whole entry): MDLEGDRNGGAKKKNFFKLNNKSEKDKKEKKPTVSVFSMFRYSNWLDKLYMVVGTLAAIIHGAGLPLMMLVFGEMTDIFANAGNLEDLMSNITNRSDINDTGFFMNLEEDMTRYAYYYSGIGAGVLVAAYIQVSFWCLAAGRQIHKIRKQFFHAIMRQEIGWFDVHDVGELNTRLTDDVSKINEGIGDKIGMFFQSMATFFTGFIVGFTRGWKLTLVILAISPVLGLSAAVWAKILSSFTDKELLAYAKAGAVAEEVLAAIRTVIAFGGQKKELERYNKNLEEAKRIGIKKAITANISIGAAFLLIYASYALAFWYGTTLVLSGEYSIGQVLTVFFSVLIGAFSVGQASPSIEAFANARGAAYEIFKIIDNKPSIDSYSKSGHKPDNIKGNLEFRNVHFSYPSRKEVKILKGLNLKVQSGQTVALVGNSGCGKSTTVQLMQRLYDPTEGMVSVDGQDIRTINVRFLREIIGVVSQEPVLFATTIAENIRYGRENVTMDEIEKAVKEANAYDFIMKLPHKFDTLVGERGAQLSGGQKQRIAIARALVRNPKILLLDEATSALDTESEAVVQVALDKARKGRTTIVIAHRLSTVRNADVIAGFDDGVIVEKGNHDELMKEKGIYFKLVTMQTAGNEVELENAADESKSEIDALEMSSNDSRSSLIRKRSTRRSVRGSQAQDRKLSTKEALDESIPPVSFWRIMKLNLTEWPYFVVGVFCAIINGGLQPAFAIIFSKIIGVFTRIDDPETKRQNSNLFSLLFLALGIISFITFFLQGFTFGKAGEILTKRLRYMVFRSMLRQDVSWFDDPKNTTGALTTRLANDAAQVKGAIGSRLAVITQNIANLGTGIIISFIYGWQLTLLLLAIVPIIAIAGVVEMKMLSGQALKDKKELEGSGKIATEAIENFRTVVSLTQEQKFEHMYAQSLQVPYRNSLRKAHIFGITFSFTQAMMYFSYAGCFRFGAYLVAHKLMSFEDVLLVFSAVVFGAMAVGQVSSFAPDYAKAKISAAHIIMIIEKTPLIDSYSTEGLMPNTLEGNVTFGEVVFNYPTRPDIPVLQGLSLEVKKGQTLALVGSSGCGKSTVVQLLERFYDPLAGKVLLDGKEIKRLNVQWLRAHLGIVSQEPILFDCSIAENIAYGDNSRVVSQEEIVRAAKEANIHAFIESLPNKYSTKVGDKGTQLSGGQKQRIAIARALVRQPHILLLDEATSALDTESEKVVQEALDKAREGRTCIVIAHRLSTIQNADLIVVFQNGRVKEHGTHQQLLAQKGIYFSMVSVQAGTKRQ

# Compound, efflux ratio at 120 min, 1 μM
rows = [
    ("CC(C)Oc1nc2nn([C@]34CC[C@](C)(C3)OC4)cc2cc1C(=O)Nc1cccn(C2CC2)c1=O (single isomer, unassigned)", 1.73),
    ("CC(C)Oc1cc2nn(C34COC(CF)(C3)C4)cc2cc1C(=O)Nc1cccn([C@@H]2C[C@H]2C)c1=O (single isomer, unassigned)", 1.74),
    ("CC(C)Oc1cc2nn([C@]34CC[C@](C)(C3)OC4)cc2cc1C(=O)Nc1cccn(C2CC2)c1=O", 1.59),
    ("CC(C)Oc1cc2nn(C34COC(C)(C3)C4)cc2cc1C(=O)Nc1cccn([C@@H]2C[C@H]2F)c1=O (single isomer, unassigned)", 1.77),
    ("CC(C)Oc1nc2nn(C34COC(C3)C4)cc2cc1C(=O)Nc1cccn([C@H]2C[C@H]2C)c1=O", 4.42),
    ("COCC12CC(n3cc4cc(C(=O)Nc5cccn([C@H]6C[C@@H]6F)c5=O)c(OC5CCC5)cc4n3)(CO1)C2 (single isomer, unassigned)", 4.05),
    ("CC[C@H](C)Oc1nc2nn(C34COC(C)(C3)C4)cc2cc1C(=O)Nc1cccn(C2CC2)c1=O", 1.4),
    ("CC(C)Oc1cc2nn(C34COC(CF)(C3)C4)cc2cc1C(=O)Nc1cccn([C@H]2C[C@H]2C)c1=O", 2.17),
    ("CC(C)Oc1cc2nn(C34COC(CF)(C3)C4)cc2cc1C(=O)Nc1cccn([C@@H]2C[C@@H]2F)c1=O", 6.21),
    ("COCC12CC(n3cc4cc(C(=O)Nc5cccn([C@@H]6C[C@@H]6C)c5=O)c(OC(C)C)nc4n3)(CO1)C2", 2.69),
    ("CC(C)Oc1nc2nn(C34COC(C)(C3)C4)cc2cc1C(=O)Nc1cccn([C@@H]2CC2(C)C)c1=O", 1.03),
    ("CC12CC(n3cc4cc(C(=O)Nc5cccn([C@@H]6C[C@@H]6F)c5=O)c(OC5CCC5)nc4n3)(CO1)C2 [Example 26]", 4.05),
    ("CC(C)Oc1nc2nn(C34COC(C)(C3)C4)cc2cc1C(=O)Nc1cccn([C@H]2C[C@H]2F)c1=O (single isomer, unassigned) [Example 34]", 3.8),
]
